Reference source for all entries: PubChem BioAssay (EPA / NIEHS)

# Read-out: Ezrin (EZR), EZR (gene 7430)
# experimental protocol: LTEA_HepaRG_EZR: Life Technologies and Expression Analysis (LTEA) Assay for Ezrin (EZR) using HepaRG (AID 2283491)
# condition notes: mRNA level, 48 h; actives raise or lower the signal
Calls of active or inactive are those of the source. How the source made its calls: active means hit-call score of the fitted dose curve at least 0.9, where 1 is the maximum; inactive means score below 0.9.
Log the outcome using a class from y (active), n (inactive)

compound | assigned class
COC(=O)c1ccccc1C(=O)O | n
CN(C)C(=O)Nc1ccc(Cl)c(Cl)c1 | n
COc1c(Cl)ccc(Cl)c1C(=O)O | n

[ask] I would be grateful if you could indicate the recorded call for Cc1nn(C)c(Oc2ccccc2)c1C=NOCc1ccc(C(=O)OC(C)(C)C)cc1 .
[reply] y

[ask] I would be grateful if you could indicate the recorded call for CC(C)(c1ccc(O)cc1)c1ccc(O)cc1 .
[reply] n

[ask] I would be grateful if you could indicate the recorded call for CCCCC(CC)COC(=O)c1ccccc1C(=O)O (stereo not drawn) .
[reply] n

[ask] I would be grateful if you could indicate the recorded call for CCN(CC)C(=O)c1cccc(C)c1 .
[reply] n

[ask] I would be grateful if you could indicate the recorded call for CCSC(=O)N(CC(C)C)CC(C)C .
[reply] n

====

# experimental protocol: ATG_PXRE_CIS: Attagene CIS-FACTORIAL HepG2 Assay for human Pregnane X Receptor Element (PXRE) (AID 2282957)
# condition notes: HepG2 Attagene CIS-FACTORIAL PXRE reporter, mRNA; actives raise or lower the signal
Calls of active or inactive are those of the source. Rule for the calls: active = hit-call score of the fitted dose curve at least 0.9, where 1 is the maximum; inactive = score below 0.9.
Log the outcome using a class from 1 (yes) for active, 0 (no) for inactive

compound | assigned class
CC(=O)[C@H]1CC[C@H]2[C@@H]3CCC4=CC(=O)CC[C@]4(C)[C@H]3CC[C@]12C | 1 (yes)
COC(=O)c1cccc(C)c1S(=O)(=O)NC(=O)Nc1nc(OCC(F)(F)F)nc(N(C)C)n1 | 1 (yes)
CCOC(=O)c1ccc(O)cc1 | 0 (no)

[ask] I would be grateful if you could indicate the recorded call for Oc1ccc(C(c2ccc(O)cc2)C(Cl)(Cl)Cl)cc1 .
[reply] 1 (yes)

[ask] I would be grateful if you could indicate the recorded call for CCCCCOC(=O)COc1cc(N2C(=O)C3=C(CCCC3)C2=O)c(F)cc1Cl .
[reply] 1 (yes)

[ask] I would be grateful if you could indicate the recorded call for O=C(c1ccc(O)cc1O)c1ccc(O)cc1O .
[reply] 0 (no)

[ask] I would be grateful if you could indicate the recorded call for COC(=O)c1ccc(CNS(C)(=O)=O)cc1S(=O)(=O)NC(=O)Nc1nc(OC)cc(OC)n1 .
[reply] 0 (no)

[ask] I would be grateful if you could indicate the recorded call for O=C(Nc1ccc([N+](=O)[O-])cc1Cl)c1cc(Cl)ccc1O .
[reply] 1 (yes)

[ask] I would be grateful if you could indicate the recorded call for Cc1nn(C)c(Oc2ccccc2)c1C=NOCc1ccc(C(=O)OC(C)(C)C)cc1 .
[reply] 1 (yes)

[ask] I would be grateful if you could indicate the recorded call for CCOC(=O)C(C)Oc1ccc(Oc2nc3ccc(Cl)cc3o2)cc1 (stereo unspecified) .
[reply] 0 (no)

[ask] I would be grateful if you could indicate the recorded call for CCOC(=O)COc1cc(-n2ncc(C(F)(F)F)c(C)c2=O)c(F)cc1Cl .
[reply] 1 (yes)
